tested on: SK-MEL-2 melanoma; assay: NCI-60 one-dose screen, 48 h; details: 10 µM unless noted
This is part of a sample that, as a whole, favours compounds with a hit. Of some 83,000 tested, about 20% had one in any assay. Active and inactive are the calls of the source. Rule for the calls: active = growth percent below 10; inactive = the rest.
Possible outcomes: active, inactive

| Molecule | Target Of Assay | Assigned Label |
| --- | --- | --- |
| O=C(Nc1cccc(Cn2c(=O)[nH]c3ccc(Oc4ncccn4)cc3c2=O)c1)c1ccc(Cl)cc1 | SK-MEL-2 melanoma | inactive |
| O=C(Nc1ccccc1)Nc1ccc(Nc2ncnc3sc4c(c23)CCCC4)cc1 | SK-MEL-2 melanoma | inactive |
| Cc1cc(CSc2ccc(Cl)cc2)ccc1N | SK-MEL-2 melanoma | inactive |
| N/C(=N\O)c1ccncc1 | SK-MEL-2 melanoma | inactive |
| COc1cc(Cn2ccc3c2-c2oncc2CC3)cc(OC)c1 | SK-MEL-2 melanoma | inactive |
| COc1cc2ncnc(Nc3ccc4c(cnn4C(=O)Nc4ccccc4)c3)c2cc1OC | SK-MEL-2 melanoma | inactive |
| CCNc1nnc(COc2ccc(CNC(=O)CCCC/C=C/C(C)C)cc2OC)o1 | SK-MEL-2 melanoma | inactive |
| C/C=C(/C)C(=O)OC1C=C(CO)C(=O)C(OC(=O)C2(C)OC2C)C1C(C)C (stereo unspecified) | SK-MEL-2 melanoma | active |
| NC(N)=N/N=C/c1cccc(Br)c1 | SK-MEL-2 melanoma | inactive |
| CCc1c(C)c2ccc(OCC(=O)N=Nc3c(O)[nH]c4ccccc34)c(C)c2oc1=O | SK-MEL-2 melanoma | inactive |
| O=C(Cc1ccccc1[N+](=O)[O-])c1ccc2c(c1)OCO2 | SK-MEL-2 melanoma | inactive |
| O=C1C(Cl)=C(Nc2ccc(Nc3ccccc3)c(NC3=C(Cl)C(=O)c4ccccc4C3=O)c2)C(=O)c2ccccc21 | SK-MEL-2 melanoma | inactive |
| O=C(Nn1cnc2ccccc21)N1CCCC1 | SK-MEL-2 melanoma | inactive |
| CC(=O)c1ccc2c(c1)c1ccccc1n2C | SK-MEL-2 melanoma | inactive |
| O=C(Nc1cccc(Cn2c(=O)[nH]c3ccc(Oc4ncccn4)cc3c2=O)c1)c1cccc(F)c1 | SK-MEL-2 melanoma | inactive |
| CCCCCCCCCCCCCCCCNC(=S)N/N=C/c1ccc(O)cc1O | SK-MEL-2 melanoma | inactive |
| N#CCc1ncc(-c2ccc(C(F)(F)F)cc2)c(NC2CCCCCC2)n1 | SK-MEL-2 melanoma | active |
| O=C(N/N=C/c1coc2ccccc2c1=O)c1cc2oc(-c3ccccc3)cc2[nH]1 | SK-MEL-2 melanoma | inactive |
| CC[C@H](Nc1ncnc2nc[nH]c12)c1nc2cccc(NCc3ccc(C(=O)NO)o3)c2c(=O)n1-c1ccccc1 | SK-MEL-2 melanoma | inactive |
| CCC(C)CC(N)O (stereo unspecified) | SK-MEL-2 melanoma | inactive |
| Clc1ccc(N/N=C(/c2ccccc2)c2ccccn2)nc1 | SK-MEL-2 melanoma | inactive |
| CCN(CC)CCOC(=O)c1cccnc1 | SK-MEL-2 melanoma | inactive |
| O=S(=O)(O)CCI | SK-MEL-2 melanoma | inactive |
| COc1cc(CCNc2cnc3cc(N)cc(N)c3n2)cc(OC)c1 | SK-MEL-2 melanoma | inactive |
| CCN(CC)c1ccc2nc3ccc(N=Nc4ccc(O)cc4)cc3[n+](-c3ccccc3)c2c1 | SK-MEL-2 melanoma | inactive |
| C=CCSc1nnc(COc2ccc3c(C)c(Cc4ccccc4)c(=O)oc3c2C)o1 | SK-MEL-2 melanoma | inactive |
| COc1cc2ncnc(-n3ncc4cc(NC(=O)Nc5ccccc5)ccc43)c2cc1OC | SK-MEL-2 melanoma | active |
| Cc1ccc([C@@H]2C[C@H](O)Cc3ccccc3N2)s1 | SK-MEL-2 melanoma | inactive |
| COC(=O)c1ccc2[nH]c(O)c(C(=Nc3ccc(N(C)C(=O)CN4CCN(C)CC4)cc3)c3ccc([N+](=O)[O-])cc3)c2c1 | SK-MEL-2 melanoma | inactive |
| COCC(=O)NNc1[nH]c(-c2ccc(OC)cc2)cc1C#N | SK-MEL-2 melanoma | inactive |
| C=CCNC(=S)NNc1ccc([N+](=O)[O-])cn1 | SK-MEL-2 melanoma | inactive |
| N#Cc1ccc(NC2c3ccccc3CC2O)cc1 (stereo unspecified) | SK-MEL-2 melanoma | inactive |
| Cc1ccc(CC(=O)O)c(C)c1 | SK-MEL-2 melanoma | inactive |
| CCOC(=O)NC1=NCC(C)(C)S1 | SK-MEL-2 melanoma | inactive |
| CC(C)(C)C(=O)OCOP(=O)(OCOC(=O)C(C)(C)C)C1CC(O)N(O)C1=O (stereo unspecified) | SK-MEL-2 melanoma | inactive |
| CSc1nc(N)n2nccc2n1 | SK-MEL-2 melanoma | inactive |
| CC(=O)C(CO)C(=O)Nc1ccccc1 (stereo unspecified) | SK-MEL-2 melanoma | inactive |
| CCOC(=O)C1=C(C(F)(F)F)NC(=S)NC1CN1C(=O)c2ccccc2C1=O (stereo unspecified) | SK-MEL-2 melanoma | inactive |
| CCN(CC)CCCNc1c2ccc(Cl)cc2nc2ccc(OC)cc12 | SK-MEL-2 melanoma | active |
| Cn1c2c(cc(S(=O)(=O)c3ccccc3)c1=O)CCc1c-2cnn1-c1ccc(Cl)cc1 | SK-MEL-2 melanoma | active |
| NC(CSC(c1ccccc1)(c1ccccc1)c1ccccc1)C(=O)NCC(=O)O (stereo unspecified) | SK-MEL-2 melanoma | inactive |
| COc1ccc2nc3cc(Cl)ccc3c(NCCCNC(C)=O)c2c1 | SK-MEL-2 melanoma | inactive |
| O=C(/C=C\c1ccccc1Cl)c1ccccc1 | SK-MEL-2 melanoma | inactive |
| CNc1ccc(Nc2ccc(S(=O)(=O)O)cc2)c2c1C(=O)c1ccccc1C2=O | SK-MEL-2 melanoma | inactive |
| COC1=CC(c2ccc[nH]2)=N/C1=C\c1[nH]c(C)c(C(=O)CCCCC(=O)NC(C)(C)C)c1C | SK-MEL-2 melanoma | inactive |
| c1cc(C2CCCCC2)ccc1OCCCCCCN1CCNCC1 | SK-MEL-2 melanoma | inactive |
